substrate: O=c1[nH]cc(CO)c(=O)[nH]1; experiment: purified protein; details: 1 mM α-KG, 0.2 mM (NH4)2Fe(SO4)2, 0.2 mM ascorbic acid, 100 mM Hepes pH 7.5, 25 °C
Binary classification by Km, with 1000 µM as an inclusive lower bound for true; all other cases are false.

IN: Please tell me: is the protein NcT7H (thymine-7-hydroxylase) (Neurospora crassa OR74A) (protein, full length (residues 1-333), C-terminal His6-tag, pET-28a, expressed in E. coli BL21(DE3); Ni-NTA and gel filtration, tag removal not mentioned) MEKAAVNEDGLVIPLIDFSKFLEGDETLKLETAKAILHGFQTAGFIYLKNIPIQPDFREHVFNTSAKFFKLPKEKKLEVGWTTPEANRGYSAPGREKVTQLTDPAEIEKIRSAAPDIKESYEIGREDEPGHPNPWPAEQDDLVGFKSTMNNFFDQCKALHIEVMRAIAVGMGIDANYFDSFVDVGDNILRLLHYPAVKSEVFKINPGQVRAGEHTDYGSITLLFQDSRGGLQVKSPNGQFIDATPIENTVVVNAGDLLARWSNDTIKSTVHRVVEPPKQEDVHPPRYSIAYFCNPNHKSYIEAIPGTYAAESERKYEGINSGKYLVQRLAATY at or over 1000 µM in terms of Km?
OUT: false

IN: Please tell me: is the protein NcT7H (thymine-7-hydroxylase) (Neurospora crassa OR74A; R286A) (protein, full length (residues 1-333), C-terminal His6-tag, pET-28a, expressed in E. coli BL21(DE3); Ni-NTA and gel filtration, tag removal not mentioned) MEKAAVNEDGLVIPLIDFSKFLEGDETLKLETAKAILHGFQTAGFIYLKNIPIQPDFREHVFNTSAKFFKLPKEKKLEVGWTTPEANRGYSAPGREKVTQLTDPAEIEKIRSAAPDIKESYEIGREDEPGHPNPWPAEQDDLVGFKSTMNNFFDQCKALHIEVMRAIAVGMGIDANYFDSFVDVGDNILRLLHYPAVKSEVFKINPGQVRAGEHTDYGSITLLFQDSRGGLQVKSPNGQFIDATPIENTVVVNAGDLLARWSNDTIKSTVHRVVEPPKQEDVHPPAYSIAYFCNPNHKSYIEAIPGTYAAESERKYEGINSGKYLVQRLAATY at or over 1000 µM in terms of Km?
OUT: false

IN: Please tell me: is the protein NcT7H (thymine-7-hydroxylase) (Neurospora crassa OR74A; N87A) (protein, full length (residues 1-333), C-terminal His6-tag, pET-28a, expressed in E. coli BL21(DE3); Ni-NTA and gel filtration, tag removal not mentioned) MEKAAVNEDGLVIPLIDFSKFLEGDETLKLETAKAILHGFQTAGFIYLKNIPIQPDFREHVFNTSAKFFKLPKEKKLEVGWTTPEAARGYSAPGREKVTQLTDPAEIEKIRSAAPDIKESYEIGREDEPGHPNPWPAEQDDLVGFKSTMNNFFDQCKALHIEVMRAIAVGMGIDANYFDSFVDVGDNILRLLHYPAVKSEVFKINPGQVRAGEHTDYGSITLLFQDSRGGLQVKSPNGQFIDATPIENTVVVNAGDLLARWSNDTIKSTVHRVVEPPKQEDVHPPRYSIAYFCNPNHKSYIEAIPGTYAAESERKYEGINSGKYLVQRLAATY at or over 1000 µM in terms of Km?
OUT: true

IN: Please tell me: is the protein NcT7H (thymine-7-hydroxylase) (Neurospora crassa OR74A; Y217F) (protein, full length (residues 1-333), C-terminal His6-tag, pET-28a, expressed in E. coli BL21(DE3); Ni-NTA and gel filtration, tag removal not mentioned) MEKAAVNEDGLVIPLIDFSKFLEGDETLKLETAKAILHGFQTAGFIYLKNIPIQPDFREHVFNTSAKFFKLPKEKKLEVGWTTPEANRGYSAPGREKVTQLTDPAEIEKIRSAAPDIKESYEIGREDEPGHPNPWPAEQDDLVGFKSTMNNFFDQCKALHIEVMRAIAVGMGIDANYFDSFVDVGDNILRLLHYPAVKSEVFKINPGQVRAGEHTDFGSITLLFQDSRGGLQVKSPNGQFIDATPIENTVVVNAGDLLARWSNDTIKSTVHRVVEPPKQEDVHPPRYSIAYFCNPNHKSYIEAIPGTYAAESERKYEGINSGKYLVQRLAATY at or over 1000 µM in terms of Km?
OUT: false
